- Target Under Test: T1, MUC16 peptide-2 glycopeptide (human, also: glycopeptide, glycan and its site not given here)
- T1 peptide: TLDRSSVLVDGYSPNRNE
- Assay Info: SPR, BIAcore X100, peptide-2 glycopeptide over antibody captured by anti-IgG
Where no end group is shown, it is not given here.
# maps each entry to its pKd
Interpret pKd as the negative base-10 log of the concentration measured in mol/L.

18C6 H2L1 humanized antibody (antibody, human IgG1, kappa, V domains shown) VH: QVTLKESGPTLVKPTQTLTLTCTFSGFSLSTVGMGVGWSRQPSGKGLEWLAHIWWDDEDKYYNPALKSRLTITKDTSKNQVVLTITNVDPVDTATYYCTRIGTAQATDALDYWGQGTLVTVSS VL: DIVMTQSAPSVPVTPGESVSISCRSSKSLLHSNGNTYLYWFLQKPGQSPQRLIYYMSNLASGVPDRFSGRGSGTDFTLKISRVEAEDVGVYYCMQSLEYPLTFGGGTKLEIKR : 8.00
18C6 H1L2 humanized antibody (antibody, human IgG1, kappa, V domains shown) VH: QVTLKESGPGILQPTQTLTLTCTFSGFSLSTVGMGVGWSRQPSGKGLEWLAHIWWDDEDKYYNPALKSRLTITKDTSKNQVFLKITNVDTADTATYYCTRIGTAQATDALDYWGQGTLVTVSS VL: DIVMTQSALSLPVTPGEPVSISCRSSKSLLHSNGNTYLYWFLQKPGQSPQRLIYYMSNLASGVPDRFSGSGSGTDFTLKISRVEAEDVGVYYCMQSLEYPLTFGGGTKLEIKR : 8.06
18C6 H2L2 humanized antibody (antibody, human IgG1, kappa, V domains shown) VH: QVTLKESGPTLVKPTQTLTLTCTFSGFSLSTVGMGVGWSRQPSGKGLEWLAHIWWDDEDKYYNPALKSRLTITKDTSKNQVVLTITNVDPVDTATYYCTRIGTAQATDALDYWGQGTLVTVSS VL: DIVMTQSALSLPVTPGEPVSISCRSSKSLLHSNGNTYLYWFLQKPGQSPQRLIYYMSNLASGVPDRFSGSGSGTDFTLKISRVEAEDVGVYYCMQSLEYPLTFGGGTKLEIKR : 8.04

Now consider a different binder.
// sample 18C6 H1L1 humanized antibody (antibody, human IgG1, kappa, V domains shown, also called H1L1 humanized 18C6 antibody) VH: QVTLKESGPGILQPTQTLTLTCTFSGFSLSTVGMGVGWSRQPSGKGLEWLAHIWWDDEDKYYNPALKSRLTITKDTSKNQVFLKITNVDTADTATYYCTRIGTAQATDALDYWGQGTLVTVSS VL: DIVMTQSAPSVPVTPGESVSISCRSSKSLLHSNGNTYLYWFLQKPGQSPQRLIYYMSNLASGVPDRFSGRGSGTDFTLKISRVEAEDVGVYYCMQSLEYPLTFGGGTKLEIKR , its pKd was 8.17
